Biological target: T1, AAV9 (adeno-associated virus 9, Assembled 60-mer capsid of VP1/VP2/VP3 (nested products of one cap gene), amine-coupled to a CM5 chip; the letters give one VP1 subunit only.)
T1 construct: also called adeno-associated virus serotype 9
Assay: SPR, AAV amine-coupled to CM5 chip
metric: kon (M⁻¹ s⁻¹)
Report only the number, with the unit M⁻¹ s⁻¹ understood.

Give kon for the following binder: A4-C6 (bispecific antibody) VQLQESGGGLVQPGGSLRLSCAASGSNFRINTMGWYRQAPGKQRELVAPVTRGGSTNYADSVKGRFTISRDNAKNTVYLQMNSLRPEDTAVYYCHVDEVRESSWTTSNLWGQGTQVTVSSGGGGSGGGGSGGGGSVQLQESGGGLVQPGGSLRLSCAASGSNFSINTMGWYRQAPGKQRELVAALTRGGSTNYADSVKGRFTISRDNAKNTVYLQMNSLRPEDTAVYYCHVDEVRESSWTTSNLWGQGTQVTVSSGGGGSGGGGSGGGGSVQLQESGGGLVQPGGSLRLSCAASGSNFSINTMGWYRQAPGKQRELVATVTRGGDTNYADSVKGRFTISRDNAKNTVYLQMNSLRPEDTAVYYCHVDEIRESSWTTSNLWGQGTQVTVSS
45400
